Ref: ChEMBL document CHEMBL1961873

- subject of test: MAP kinase-activated protein kinase 5 (Homo sapiens)
- assay context: at 1 µM
I'd appreciate it if you could supply inhibition values for the items below.
Give bare numbers, in %.

1. Cc1cc(-c2ccccn2)cc(C)c1/C=C/c1cncc(-c2nn[nH]n2)c1 = 1.42
2. CCS(=O)(=O)c1ccc(OC)c(Nc2ncc(-c3cccc(OC)c3)o2)c1 = -0.22
3. O=C(Nc1ccc(Oc2ccc3[nH]c(NC(=O)c4ccco4)nc3c2)cc1)Nc1cc(C(F)(F)F)ccc1F = -0.75

# return inhibition for each item in the list
1. CC(C)c1ccc2c(c1)NC(=O)/C2=N/Nc1ccc(S(N)(=O)=O)cc1
2. Cc1ccc(Nc2ccnc(Nc3cccc(C(N)=O)c3)n2)cc1O
3. FC(F)(F)c1ccc(-c2nn3ncccc3c2-c2ccnc(Nc3ccc4c(c3)OCCO4)n2)cc1
4. COc1cccc(-n2ncc3c(N/N=C/c4ccc(S(C)(=O)=O)cc4)ncnc32)c1
5. Cc1cc(O)cc(C)c1/C=C/c1cncc(C(=O)N(C)C)c1
6. CCn1c(-c2nonc2N)nc2c(C#CC(C)(C)O)nc(OCCNC)cc21
7. COc1cc2ncnc(Nc3ccc4c(cnn4Cc4ccccc4)c3)c2cc1OC

Result:
1. 0.35
2. 1.29
3. 5.39
4. 0.26
5. -0.52
6. 1.03
7. 0.85

----------
I'd appreciate it if you could supply inhibition values for the items below.
- Tested on: Tyrosine-protein kinase ABL1 (Homo sapiens), P00519 [Q252H]
- assay context: at 0.1 µM
Answers are plain numbers, in %.

The examples below pair each entry with its known result.
1. Nc1nccc(-c2c(-c3ccc(F)cc3)ncn2CCCN2CCOCC2)n1 = 2.53
2. COc1cc2ncnc(Nc3ccc(C)c(O)c3)c2cc1OC = 41.1
3. CCS(=O)(=O)c1ccc(OC)c(Nc2nccc(N(C)c3ccc4c(C)n[nH]c4c3)n2)c1 = 57.7

# return inhibition for each item in the list
1. Cc1ccc2c(c1)/C(=N/Nc1ccc(S(N)(=O)=O)cc1)C(=O)N2
2. CN(C)c1cc2c(Nc3ccc4c(cnn4Cc4ccccc4)c3)ncnc2cn1
3. CS(=O)(=O)CCNCc1nc(-c2ccc3ncnc(Nc4ccc(OCc5cccc(C(F)(F)F)c5)cc4)c3c2)cs1
4. CCn1c(-c2nonc2N)nc2c(C#CC(C)(C)O)nc(OCCNC)cc21
5. CCS(=O)(=O)c1ccc(OC)c(Nc2ncc(-c3cccc(OC)c3)o2)c1
6. COc1cc2ncnc(Nc3ccc4c(cnn4Cc4ccccc4)c3)c2cc1OC
7. Nc1nccc(-c2c(-c3ccc(F)cc3)nn3cc(C(F)(F)F)ccc23)n1

Result:
1: 1.64; 2: 0.79; 3: 1.8; 4: 3.81; 5: 46.6; 6: 2.63; 7: 1.06

----------
I'd appreciate it if you could supply inhibition values for the items below.
- subject of test: Macrophage colony-stimulating factor 1 receptor (Homo sapiens)
- assay context: at 0.1 µM
Answers are plain numbers, in %.

The examples below pair each entry with its known result.
1) NS(=O)(=O)c1ccc(N/N=C2\C(=O)Nc3ccc(Cl)cc32)cc1 = 3.24
2) Cc1ccc(Nc2ccnc(Nc3cccc(C(N)=O)c3)n2)cc1O = 12.7

Now look at this entry.
Problem: Requested read-out: inhibition. Entry: c1ccc(Nc2ncc(-c3ccccc3)o2)cc1
Result: 3.76

----------
- subject of test: Interleukin-1 receptor-associated kinase 4 (Homo sapiens)
- assay context: at 0.1 µM
I'd appreciate it if you could supply inhibition values for the items below.
One number for each entry, in %.

The examples below pair each entry with its known result.
1. ON=C1CCc2cc(-c3nc(C4CCNCC4)[nH]c3-c3ccncc3)ccc21 = 4
2. CN(c1ccc(NC(=O)Nc2ccc(OC(F)(F)F)cc2)cc1)c1ccnc(Nc2cccc(S(N)(=O)=O)c2)n1 = 1.26
3. NS(=O)(=O)c1ccc(Nc2cc(-c3cccc(O)c3)n[nH]2)cc1 = 0.88
4. Cc1ccc(O)cc1Nc1ccnc2ccc(S(C)(=O)=O)cc12 = 4.59

# return inhibition for each item in the list
1. COc1cc2ncnc(Nc3ccc(C)c(O)c3)c2cc1OC
2. COc1cc2ncn(-c3cc(OCc4ccccc4S(C)(=O)=O)c(C#N)s3)c2cc1OC
3. O=C(Nc1ccc(Oc2ccc3[nH]c(NC(=O)c4ccco4)nc3c2)cc1)Nc1cc(C(F)(F)F)ccc1F
4. Nc1ccc(C#Cc2cncnc2Nc2ccc(OCc3cccc(F)c3)c(Cl)c2)cc1
5. C[C@@H](Oc1cc(-n2cnc3ccc(OCC4CCN(C)CC4)cc32)sc1C(N)=O)c1ccccc1C(F)(F)F

Result:
[4.09, -0.58, -2.35, 0.78, 0.42]

----------
I'd appreciate it if you could supply inhibition values for the items below.
- subject of test: Macrophage colony-stimulating factor 1 receptor (Homo sapiens) (UniProt P07333)
- Sequence (P07333 whole entry): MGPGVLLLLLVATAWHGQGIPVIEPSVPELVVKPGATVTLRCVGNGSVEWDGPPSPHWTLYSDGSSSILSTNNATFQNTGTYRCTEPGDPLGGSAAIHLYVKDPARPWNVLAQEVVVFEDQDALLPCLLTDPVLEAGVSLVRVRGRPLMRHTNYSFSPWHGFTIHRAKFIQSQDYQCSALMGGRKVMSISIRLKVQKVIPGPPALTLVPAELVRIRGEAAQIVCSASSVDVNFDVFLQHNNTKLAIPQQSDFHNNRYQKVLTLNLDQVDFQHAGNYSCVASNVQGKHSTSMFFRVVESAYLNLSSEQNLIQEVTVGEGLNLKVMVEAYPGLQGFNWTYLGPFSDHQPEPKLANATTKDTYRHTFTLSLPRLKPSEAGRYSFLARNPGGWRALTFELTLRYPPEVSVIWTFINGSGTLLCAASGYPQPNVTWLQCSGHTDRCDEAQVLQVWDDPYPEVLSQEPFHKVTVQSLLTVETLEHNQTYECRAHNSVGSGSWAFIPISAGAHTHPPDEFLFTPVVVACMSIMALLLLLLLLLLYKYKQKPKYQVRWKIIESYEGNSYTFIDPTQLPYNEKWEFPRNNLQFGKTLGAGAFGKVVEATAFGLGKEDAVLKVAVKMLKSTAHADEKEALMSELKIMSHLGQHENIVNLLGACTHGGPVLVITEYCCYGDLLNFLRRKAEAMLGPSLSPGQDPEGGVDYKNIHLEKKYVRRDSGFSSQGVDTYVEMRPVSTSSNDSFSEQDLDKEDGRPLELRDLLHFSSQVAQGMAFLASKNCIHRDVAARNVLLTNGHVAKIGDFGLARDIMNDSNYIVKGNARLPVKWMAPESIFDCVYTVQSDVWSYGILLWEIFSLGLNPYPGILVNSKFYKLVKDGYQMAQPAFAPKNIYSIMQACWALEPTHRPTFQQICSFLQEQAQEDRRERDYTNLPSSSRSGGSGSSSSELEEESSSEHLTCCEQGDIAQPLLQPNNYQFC
- assay context: at 0.1 µM
Numbers only, in %.

1) Cc1cc(O)cc(C)c1/C=C/c1cncc(C(=O)N(C)C)c1 = 1.52

# return inhibition for each item in the list
1. CCn1c(-c2nonc2N)nc2c(C#CC(C)(C)O)nc(OCCNC)cc21
2. Cc1ccc2c(-c3ccnc(Nc4cccc(C(F)(F)F)c4)n3)c(-c3ccccc3)nn2n1
3. COc1ccc2ncnc(Nc3ccc(OCc4ccccc4)cc3)c2c1

Result:
[-0.38, 1.77, 3.05]

Problem: Entry COc1cccc(-n2nc(C)c3c(N/N=C(\C)c4ccncc4)ncnc32)c1 , system Macrophage colony-stimulating factor 1 receptor (Homo sapiens) (UniProt P07333): what inhibition was measured?;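 also: value reported is the mean inhibition of FMS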
Result: -1.96

----------
- subject of test: NT-3 growth factor receptor (Homo sapiens)
- assay context: at 0.1 µM
I'd appreciate it if you could supply inhibition values for the items below.
One number for each entry, in %.

The examples below pair each entry with its known result.
1. Cc1ccc2c(-c3ccnc(Nc4cccc(C(F)(F)F)c4)n3)c(-c3ccccc3)nn2n1 = 2.41
2. C[C@@H](Oc1cc(-n2cnc3ccc(OC[C@@H](O)CO)cc32)sc1C(N)=O)c1ccccc1Cl = 3.59
3. CCn1c(-c2nonc2N)nc2ccc(F)cc21 = 3.74
4. COc1cccc(-n2ncc3c(N/N=C/c4ccc(C)cc4)ncnc32)c1 = 3.96
5. Oc1cccc(-c2nc(-c3ccccc3)[nH]c2-c2ccncc2)c1 = 4.99

# return inhibition for each item in the list
1. O=C1Nc2ccccc2/C1=C/Nc1ccc2[nH]c(=O)[nH]c2c1
2. NC(=O)c1sc(-n2cnc3ccccc32)cc1OCc1ccccc1Br
3. COC(=O)c1cncc(/C=C/c2c(C)cc(O)cc2C)c1
4. CCCN1CCCC(c2ccc(Nc3nc(Nc4cc(F)ccc4C(N)=O)c4cc[nH]c4n3)c(OC)c2)C1 (stereo unspecified)
5. CN1CCN(C(=O)c2ccc(NC(=O)Nc3ccc(N(C)c4ccnc(Nc5ccc(CS(C)(=O)=O)cc5)n4)cc3)cc2)CC1
6. Cc1ccc(C(=O)NC2CC2)cc1-c1ccc2[nH]ncc2c1
7. NS(=O)(=O)c1ccc(NC=C2C(=O)Nc3ccc4ncsc4c32)cc1
8. N#Cc1c(NC(=O)c2ccccc2F)sc2c1CCCC2

Result:
[26.2, 1.79, 2, 3.36, 9.24, -1.71, 35.6, 0.83]

----------
- subject of test: MAP/microtubule affinity-regulating kinase 4 (Homo sapiens)
- Sequence (whole entry): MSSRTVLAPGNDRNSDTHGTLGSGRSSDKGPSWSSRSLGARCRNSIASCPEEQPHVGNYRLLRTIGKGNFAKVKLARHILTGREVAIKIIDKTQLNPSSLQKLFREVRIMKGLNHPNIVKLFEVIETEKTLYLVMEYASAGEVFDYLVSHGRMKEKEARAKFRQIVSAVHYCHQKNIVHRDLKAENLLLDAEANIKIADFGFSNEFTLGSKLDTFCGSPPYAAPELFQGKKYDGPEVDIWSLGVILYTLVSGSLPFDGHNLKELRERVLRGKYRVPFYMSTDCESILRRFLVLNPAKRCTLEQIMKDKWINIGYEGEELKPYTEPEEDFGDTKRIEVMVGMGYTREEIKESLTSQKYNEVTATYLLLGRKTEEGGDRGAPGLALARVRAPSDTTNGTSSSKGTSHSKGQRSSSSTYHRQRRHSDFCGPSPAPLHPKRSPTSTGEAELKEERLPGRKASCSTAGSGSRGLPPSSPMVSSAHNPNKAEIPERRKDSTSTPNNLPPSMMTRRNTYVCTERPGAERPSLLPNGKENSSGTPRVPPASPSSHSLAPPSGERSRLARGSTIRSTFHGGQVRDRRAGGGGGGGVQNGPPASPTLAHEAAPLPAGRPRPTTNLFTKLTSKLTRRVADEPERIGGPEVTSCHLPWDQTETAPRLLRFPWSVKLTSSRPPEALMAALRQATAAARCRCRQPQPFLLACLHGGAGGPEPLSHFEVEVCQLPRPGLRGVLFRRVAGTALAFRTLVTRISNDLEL
- assay context: at 0.1 µM
I'd appreciate it if you could supply inhibition values for the items below.
Answers are plain numbers, in %.

1) COc1cc(/C=N/Nc2ncnc3c2cnn3C(C)C)ccc1O = 0.37
2) COc1ccc2ncnc(Nc3ccc(OCc4ccccc4)cc3)c2c1 = 0.07
3) Cc1ccc(Nc2ccnc(Nc3cccc(C(N)=O)c3)n2)cc1O = 1.68

# return inhibition for each item in the list
1. COc1cccc(-n2nc(C)c3c(N/N=C(\C)c4ccncc4)ncnc32)c1
2. Cc1nc(-c2ccccc2)n2nc(NCCCN3CCOCC3)ncc12
3. COc1cc2ncnc(Nc3ccc(C)c(O)c3)c2cc1OC
4. CCS(=O)(=O)c1ccc(OC)c(Nc2nccc(N(C)c3ccc4c(C)n[nH]c4c3)n2)c1
5. C[C@@H](Oc1cc(-n2cnc3ccc(OC[C@@H](O)CO)cc32)sc1C(N)=O)c1ccccc1Cl
6. N#Cc1c(NC(=O)c2ccccc2F)sc2c1CCCC2

Result:
-0.19
1.2
1.47
2.78
1.02
1.13

Problem: Requested read-out: inhibition. Entry: C[C@@H](Oc1cc(-n2cnc3ccc(OCC4CCN(C)CC4)cc32)sc1C(N)=O)c1ccccc1C(F)(F)F
Result: 8.72
